Please provide measured composite z-score for the entries that follow.
tested on: PRMT1 (protein arginine N-methyltransferase 1); test: PRMT1 binders on small-molecule microarrays, primary screen, biochemical, small-molecule microarray, 635 nm fluorescence (AID 1088); settings: small-molecule microarray binding, higher = more signal;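 further: binding of Prmt1 protein to compounds spotted on small-molecule microarray slides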
Give bare numbers.

For every listed record, write down its composite z-score.
1. COc1ccc(NC(=O)O[C@H]2[C@H](OC(=O)Nc3ccccc3)[C@H](OC(=O)Nc3ccccc3)[C@@H](OC)O[C@@H]2CO)cc1
2. C=CCOC(=O)[C@H]1[C@@H]2C(=O)O[C@@H](c3ccccc3)[C@@H](c3ccccc3)N2[C@@H](c2ccc(OCCOC(=O)[C@@H]3C[C@@H]4C(=O)N[C@@H](CCCCNC(C)=O)C(=O)N4[C@@H]3c3ccc(O)cc3)cc2)[C@]12C(=O)Nc1ccc(I)cc12
3. COc1cc(OC)c(C(O)C2C=CC3C(=O)N(c4ccccc4)C(=O)C3N2Nc2ccccc2)cc1Br (stereo not given)

Ans.
[1.55, 1.52, 1.2]

Batch: composite z-score for all items listed.
1. O=C1C[C@@](C(=O)NCCN2CCOCC2)(c2ccc([N+](=O)[O-])cc2)[C@@H](c2ccc(CO)cc2I)N1C1CCCCC1
2. C=CCOC(=O)[C@H]1[C@@H]2C(=O)O[C@@H](c3ccccc3)[C@@H](c3ccccc3)N2[C@@H](c2ccc(OCCOC(=O)[C@H]3C[C@H]4C(=O)N[C@@H](CCCCNC(C)=O)C(=O)N4[C@H]3c3ccc(O)cc3)cc2)[C@]12C(=O)Nc1ccccc12

Ans.
1.3
1.54

----------
biological target: Dihydroorotate dehydrogenase (quinone), mitochondrial (Plasmodium falciparum (isolate 3D7)) (UniProt Q08210); assay: PfDHODH enzyme inhibitors, primary screen, biochemical, C-terminal His tag, absorbance 600 nm (AID 1175); conditions: DCIP absorbance 600 nm, higher = more signal, called active from +8 up or from −8 down;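 further: recombinant parasite enzyme with a five histidine tag at its C terminus; test concentration not given here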
Sequence (Q08210 whole entry, looked up): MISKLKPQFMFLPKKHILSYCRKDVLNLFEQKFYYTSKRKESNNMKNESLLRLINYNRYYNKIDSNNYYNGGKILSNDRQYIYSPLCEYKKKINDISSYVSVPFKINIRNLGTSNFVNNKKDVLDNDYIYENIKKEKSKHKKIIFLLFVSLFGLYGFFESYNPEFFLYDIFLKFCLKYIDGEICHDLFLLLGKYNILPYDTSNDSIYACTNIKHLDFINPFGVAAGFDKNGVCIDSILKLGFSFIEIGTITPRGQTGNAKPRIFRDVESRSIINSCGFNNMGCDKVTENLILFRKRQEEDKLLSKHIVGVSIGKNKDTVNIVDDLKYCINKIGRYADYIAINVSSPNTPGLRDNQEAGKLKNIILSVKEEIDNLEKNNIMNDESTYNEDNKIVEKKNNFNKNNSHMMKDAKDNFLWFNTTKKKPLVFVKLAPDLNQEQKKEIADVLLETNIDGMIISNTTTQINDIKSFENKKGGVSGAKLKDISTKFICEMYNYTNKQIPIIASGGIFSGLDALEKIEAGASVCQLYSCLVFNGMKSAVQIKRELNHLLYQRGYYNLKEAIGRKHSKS
Assignment: determine reported composite z-score for the given compounds.
Answers are plain numbers.

Return reported composite z-score values for all items listed beneath this line.
1. NC(=O)N1C(=O)C2C(C1=O)C1C=C(CCCO)C2C(c2cccs2)N1Cc1cccc(OC(F)(F)F)c1 (stereo not given)
2. CC(C)C(CO)N1C(=O)[C@@H]2C3C(=O)OCCC/C=C\[C@H]3OC23C=CCN(C(C)(C)C)C(=O)[C@@H]13 (stereo not given in full)
3. COc1ccc([Si](C)(C)[C@@H]2[C@@H](CC(=O)N(CCO)Cc3ccccc3)O[C@]3(C(=O)N(Cc4cccc(N5CCOC5=O)c4)c4ccccc43)[C@H]2C)cc1
4. CCC[C@@H]1C[C@@]1(CCC)[C@@H](NC(=O)OCc1ccccc1)c1ccc(-c2ccccc2)cc1

Ans.
1: -0.376; 2: -1.85; 3: 0.0205; 4: -0.251

For each listed entry, give its composite z-score.
1. C=C[C@@H](COC(C)=O)N(C(=O)OC(C)(C)C)S(=O)(=O)c1ccc(Br)cc1
2. [N-]=[N+]=Nc1ccccc1[C@@H]1OC(c2ccc(OCCCO)cc2)=N[C@]1(Cc1ccccc1)C(=O)NCC(O)CO (stereo not given in full)
3. CCOC(=O)C1=C[C@@H](c2ccccc2)N(S(=O)(=O)c2ccc(C)cc2)[C@H]1c1ccccc1Cl
4. COc1ccc(C#Cc2ccc3c(c2)[C@]2(C(=O)N3)[C@H](c3ccc(O)cc3)N3[C@H](c4ccccc4)[C@H](c4ccccc4)OC(=O)[C@H]3[C@@H]2C(=O)O)cc1

Ans.
-1.25
0.255
0.268
-2.78

# batch: return composite z-score for each of the 2 compounds below
1. COc1ccc(CN(C2=CC[C@@]3(C(N)=O)C(=O)C(Cl)=C(Cl)C(=O)[C@@]3(C#N)C2)S(=O)(=O)c2ccc(Br)cc2)cc1
2. [N-]=[N+]=NCc1ccccc1C[C@@]1(C(=O)NCc2ccccc2)N=C(c2ccc(OCCCO)cc2)O[C@@H]1c1ccccc1N=[N+]=[N-]

Ans.
[-4.12, 0.805]

List composite z-score for every entry below, keeping the order given.
1. COC(=O)Cn1c(C(=O)N(C)C)cc2c1C[C@H]1CN(C(=O)c3ccccc3)[C@@](Cc3ccc(F)cc3)(C(=O)OC)[C@@H]21
2. COc1ccc(CCNC(=O)[C@@H]2c3ccccc3C(=O)N(Cc3cc(C(F)(F)F)cc(C(F)(F)F)c3)[C@H]2c2ccc(CO)cc2)cc1
3. COC(=O)[C@@]1(Cc2ccccc2)[C@H]2c3cc(C(=O)N(C)C)n(Cc4c(CO)[nH]cc(C)c4=O)c3C[C@H]2CN1C(=O)c1ccccc1
4. COCCCNC(=O)[C@@]1(Cc2ccccc2N=[N+]=[N-])COC(c2ccc(OCCCO)cc2)=N1
5. O=C1N(Cc2ccccc2)c2ccccc2[C@@H]2OC(c3ccc(OCCCO)cc3)=N[C@]12Cc1ccccc1

Ans.
1: 0.289; 2: -0.928; 3: 0.0442; 4: 0.962; 5: 1.07
